target: ATP-sensitive inward rectifier potassium channel 1 (Homo sapiens); experiment: retested modulators of human Kir1.1 channel – cell-based, thallium flux, duplicate, resupplied hits, confirmation (AID 1917); settings: ROMK thallium flux, fluorescence ratio; at 10 µM; stronger effect = lower value
Hit rate of the full screen: of about 3,000 compounds, about 1,600 (53%) were called active. Roughly 10% stayed inconclusive and do not appear here. The set was probably picked from earlier hits. The list is a sample of the results.
normalized thallium flux (F/F0 slope) less than 0.06 is rule met; normalized thallium flux (F/F0 slope) greater than or equal to 0.06 is rule not met.

Solved cases (3 shown):
[in] Given the entry O=C(Nc1ccc(N2CCOCC2)cc1)c1ccc(-c2ccccc2[N+](=O)[O-])o1 , would its reported normalized thallium flux (F/F0 slope) be below 0.06?
[out] rule not met

[in] Is normalized thallium flux (F/F0 slope) strictly under 0.06 for the entry CC(=O)Nc1cccc(OCC(=O)/C=C2\N(C)c3ccccc3C2(C)C)c1 ?
[out] rule not met

[in] Below 0.06 on normalized thallium flux (F/F0 slope)? Entry CSc1cccc(NC(=S)N(Cc2ccccc2)Cc2ccccn2)c1
[out] rule not met

---
[in] Lab note: confirm whether the reported normalized thallium flux (F/F0 slope) for this compound is below 0.06, equality not counting. compound: O=C(Cn1nc(CNc2ccc(Cl)cc2)[n+]2c1CCCCC2)c1ccc(Cl)cc1
[out] rule met

[in] Determine whether this compound shows normalized thallium flux (F/F0 slope) lower than 0.06 (ties excluded): CN(C)/C=C(/C(=O)c1ccc(Cl)c(Cl)c1)c1nnnn1-c1ccccc1
[out] rule not met

[in] Decide: normalized thallium flux (F/F0 slope) of Cc1nc2ccccc2nc(=O)c1NNc1ccc([N+](=O)[O-])cc1 strictly below 0.06?
[out] rule not met

[in] Quick check: does COC(=O)C[n+]1cccc2ccccc21 have normalized thallium flux (F/F0 slope) under 0.06?
[out] rule met

[in] Take the compound CC(C)CN(CC(C)C)CC(O)CN(c1ccccc1)S(=O)(=O)c1ccccc1[N+](=O)[O-] (configuration not stated) and say whether its normalized thallium flux (F/F0 slope) is less than 0.06.
[out] rule not met

[in] Report whether reported normalized thallium flux (F/F0 slope) is lower than 0.06 (strictly) for COc1ccc([N+](=O)[O-])cc1N(CC(O)CN(CC(C)C)CC(C)C)S(=O)(=O)c1ccc(C)cc1 (configuration not stated)
[out] rule not met

[in] Is 0.06 strictly greater than the compound's reported normalized thallium flux (F/F0 slope)? compound: Cn1c(SCC(=O)N2CCCc3ccccc32)nc2ccccc2c1=O
[out] rule not met

[in] # check: normalized thallium flux (F/F0 slope) < 0.06 for CCCOc1ccc(C(=O)C(CCC(CNCC)C(=O)c2ccc(OCCC)cc2)CNCC)cc1 (configuration not stated)
[out] rule met

[in] Please determine if CC1(C)CCSC(/C=C/c2ccccc2)=N1 is below 0.06 in terms of normalized thallium flux (F/F0 slope).
[out] rule met

[in] Does this compound meet the criterion normalized thallium flux (F/F0 slope) < 0.06? CCC(C)(C)n1nnnc1C(c1cccs1)N1CCN(c2nc3ccccc3s2)CC1 (configuration not stated)
[out] rule not met

[in] Lab log: compare recorded normalized thallium flux (F/F0 slope) with 0.06; is it strictly lower for Cc1cccn2c(=O)c3cc(C(=O)N4COCC4(C)C)n(C)c3nc12 ?
[out] rule met

Just for reference, PubChem BioAssay AID1917 is where these values come from.
